TARGET OR SYSTEM: human DGAT2 (Homo sapiens, UniProt Q96PD7)
Construct: made in house; host or cells: sf9 insect cells
Sequence (Q96PD7 whole entry): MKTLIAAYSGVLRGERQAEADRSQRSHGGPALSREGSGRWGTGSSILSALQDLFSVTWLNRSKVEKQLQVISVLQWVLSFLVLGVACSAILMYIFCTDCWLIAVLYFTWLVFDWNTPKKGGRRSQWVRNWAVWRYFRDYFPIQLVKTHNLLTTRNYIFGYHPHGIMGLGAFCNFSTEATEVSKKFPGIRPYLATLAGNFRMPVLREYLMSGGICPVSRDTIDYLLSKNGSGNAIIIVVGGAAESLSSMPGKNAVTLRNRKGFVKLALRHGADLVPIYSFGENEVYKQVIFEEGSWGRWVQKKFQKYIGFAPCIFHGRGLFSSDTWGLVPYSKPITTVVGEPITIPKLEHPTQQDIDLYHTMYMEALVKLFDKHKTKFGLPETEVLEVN
ASSAY INFO: DGAT enzyme inhibition test, hDGAT2 enzyme from sf9 insect cells (DGAT2 selectivity)
Format: biochemical
DETAILS: 10 μM; enzyme from sf9 cells overexpressing hDGAT2; read-out: hDGAT-2 (sf9) inhibition rate(%)at 10 μM
Provide the reported inhibition at 10 µM of each item.
Give bare numbers, in %.

Example entries and their recorded answers appear below.
CCn1cc(/C=C/C(=O)N(NC(=O)c2cccc(F)c2)C(C)C)c2ccccc21 [Example 41] : 20.3
CC(C)N(NC(=O)c1ccccc1)C(=O)/C=C/c1cn(C(=O)C(C)(C)C)c2ccccc12 [Example 31] : 4.4
Cc1ccc2c(/C=C/C(=O)N(NC(=O)c3cccc(F)c3)C(C)C)cn(C(=O)OC(C)(C)C)c2c1 [Example 37] : 2.9
Cc1ccc2c(c1)c(/C=C/C(=O)N(NC(=O)c1cccc(F)c1)C(C)C)cn2C(=O)OC(C)(C)C [Example 35] : 2
Cc1cccc(C(=O)NN(C(=O)/C=C/c2cn(C(=O)OC(C)(C)C)c3ccccc23)C(C)C)c1 [Example 47] : 34.1
CC(C)=CCn1cc(/C=C/C(=O)N(NC(=O)c2cccc(C)c2)C(C)C)c2ccccc21 [Example 50] : 39

Now examine the next entry.
Provide value of inhibition at 10 µM for this record tested with human DGAT2 (Homo sapiens, UniProt Q96PD7): CC(C)c1ccc2c(/C=C/C(=O)N(NC(=O)c3cccc(F)c3)C(C)C)cn(C(=O)OC(C)(C)C)c2c1 [Example 36]
3.6
